Biological target: T1, human DLL3 (ACRO, DLL3-H52H4) (human, UniProt Q9NYJ7 27-492)
T1 construct: Bought
T1 sequence: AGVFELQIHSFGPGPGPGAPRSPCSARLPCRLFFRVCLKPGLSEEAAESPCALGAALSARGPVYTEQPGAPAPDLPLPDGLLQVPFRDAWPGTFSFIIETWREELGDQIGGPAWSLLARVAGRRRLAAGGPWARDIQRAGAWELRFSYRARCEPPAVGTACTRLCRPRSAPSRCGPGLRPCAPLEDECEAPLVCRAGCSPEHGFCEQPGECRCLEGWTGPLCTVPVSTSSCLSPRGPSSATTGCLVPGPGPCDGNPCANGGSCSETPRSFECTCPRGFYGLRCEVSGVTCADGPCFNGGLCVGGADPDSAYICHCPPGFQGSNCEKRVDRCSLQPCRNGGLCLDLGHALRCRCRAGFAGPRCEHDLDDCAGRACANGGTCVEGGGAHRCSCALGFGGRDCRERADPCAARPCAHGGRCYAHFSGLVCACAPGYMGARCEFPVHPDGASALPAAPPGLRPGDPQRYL
Experiment: SPR Biacore 8K, Ab captured on Protein A
RECORDED_METRIC: koff (s⁻¹)
Value expressed in s⁻¹; do not type the unit.

The cases that follow already have their koff on record.
hu30L3H3 (antibody, human IgG1, kappa, V domains shown) VH: EVRLVQSGAEVKKPGASVKVSCKASGYTFTDYYMNWVRQAPGQSLEWMGIINPYQGDTSYNQKFRGRVTLTVDKSASTAYMELSSLRSEDTAVYYCARYHYGPHLEGYFDVWGQGTTVTVSS VL: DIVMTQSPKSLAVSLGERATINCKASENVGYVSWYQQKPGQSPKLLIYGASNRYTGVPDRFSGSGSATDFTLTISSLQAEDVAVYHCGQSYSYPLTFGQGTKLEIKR | 0.00131
hu30L5H11 (antibody, human IgG1, kappa, V domains shown) VH: EVRLVQFGAVVKKPGASVKVSCKASGYTFTDYYMNWVRQAPGQSLEWMGIINPYTGDTSYNQKFRGRVTLTVDKSSSTAYMELSSLTSEDTAVYYCARYHYGPHLEGYFDVWGQGTTVTVSS VL: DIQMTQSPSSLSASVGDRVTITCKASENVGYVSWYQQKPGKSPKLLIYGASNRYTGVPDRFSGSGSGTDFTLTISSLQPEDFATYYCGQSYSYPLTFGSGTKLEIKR | 0.0012
hu30L3H6 (antibody, human IgG1, kappa, V domains shown) VH: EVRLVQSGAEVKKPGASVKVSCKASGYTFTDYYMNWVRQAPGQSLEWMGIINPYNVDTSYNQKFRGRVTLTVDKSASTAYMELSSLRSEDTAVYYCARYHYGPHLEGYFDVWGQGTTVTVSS VL: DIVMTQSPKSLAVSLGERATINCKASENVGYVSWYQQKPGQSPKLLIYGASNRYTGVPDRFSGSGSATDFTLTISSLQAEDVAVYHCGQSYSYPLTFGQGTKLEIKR | 0.000894

Recorded koff (binder hu6L1H2 (antibody, human IgG1, kappa, V domains shown) VH: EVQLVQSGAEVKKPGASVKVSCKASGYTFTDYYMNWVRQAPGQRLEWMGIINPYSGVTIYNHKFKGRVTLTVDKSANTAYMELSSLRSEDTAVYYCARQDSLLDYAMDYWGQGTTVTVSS VL: DIQMTQSPSSLSASVGDRVTITCHASQGISGNMGWLQQKPGKAPKGLIYHGANLEDGVPSRFSGSGSGTDFTLTISSLQPEDFATYYCVQYAQFPYTFGGGTKVEIKR ): 0.00173

Form: binder = hu30L5H9 (antibody, human IgG1, kappa, V domains shown) VH: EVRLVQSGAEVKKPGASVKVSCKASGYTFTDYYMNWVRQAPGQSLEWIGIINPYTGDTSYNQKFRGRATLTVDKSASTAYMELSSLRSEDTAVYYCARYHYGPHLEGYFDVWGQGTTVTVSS VL: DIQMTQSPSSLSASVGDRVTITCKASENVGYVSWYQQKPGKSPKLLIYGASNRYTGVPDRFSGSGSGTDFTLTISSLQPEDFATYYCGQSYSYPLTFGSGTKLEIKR ; koff = 0.000989

# koff (binder: hu6L2H13 (antibody, human IgG1, kappa, V domains shown) VH: EVQLVQSGSELKKPGASVKVSCKASGYTFTDYYMNWVKQAPGQGLEWMGIINPYSGVTIYNHKFKGRFALSVDKSSNTAYLQISSLKAEDTAVYYCARQDSLLDYAMDYWGQGTTVTVSS VL: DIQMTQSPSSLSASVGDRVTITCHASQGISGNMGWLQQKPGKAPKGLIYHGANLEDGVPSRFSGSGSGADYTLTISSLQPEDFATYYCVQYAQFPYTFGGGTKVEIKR ) is 0.000803
